test-system: T1, CD7-Fc recombinant protein (human, UniProt P09564 26-180)
T1 construct: also called CD7-Fc protein; human CD7-Fc
T1 sequence (looked up): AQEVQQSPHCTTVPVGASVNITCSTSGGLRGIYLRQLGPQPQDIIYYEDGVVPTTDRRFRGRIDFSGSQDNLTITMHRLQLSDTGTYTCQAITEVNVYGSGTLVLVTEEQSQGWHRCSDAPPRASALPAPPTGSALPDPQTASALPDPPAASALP
measurement-description: flow cytometry, CAR-T cells stained with CD7-Fc protein

>  <binder>
anti-CD7 scFv-H4 antibody (scFv, V domains shown, Fully human scFv from the phage library) VH: QVQLVQSGGGLVQPGGSLRLSCAASGFTFSTYWMSWVRQAPGKGLEWVANINQDGTEKYYVDSVKGRFTISRDNAKNSLYLQMNSLRAEDTAVYYCAREPGIALDYWGQGTLVTVSS VL: QSVVTQPPSVSAAPGQKVTISCSGSSSNIGNNYVSWYQQLPGTAPKLLIYDNNKRPSGIPDRFSGSKSGTSATLGITGLQTGDEADYYCGTWDSSLSAGDWVFGGGTKLTVL

>  <binding result>
binds

$$$$

Entry source: patent US20250161358A1
